- Organism: Homo sapiens
- run_description: Selectivity ratio of IC50 for wild type LRRK2 (unknown origin) to IC50 for LRRK2 G2019S mutant (unknown origin)
Ratio IC50 of 2 or higher: YES. Under 2: NO.

>  <compound>
FC(F)(F)c1cccc(Sc2ccc3cnc(-c4cccs4)n3n2)c1

>  <assigned_label>
NO

$$$$
>  <compound>
FC(F)(F)c1cccc(Sc2ccc3nnc(-c4sccc4Br)n3n2)c1

>  <assigned_label>
YES

$$$$
>  <compound>
Brc1cccc(Sc2ccc3nnc(-c4cncs4)n3n2)c1

>  <assigned_label>
YES

$$$$
>  <compound>
FC(F)(F)c1cccc(Sc2cn3c(-c4cccs4)cnc3cn2)c1

>  <assigned_label>
NO

$$$$
>  <compound>
CC(Sc1ccc2nnc(-c3cccs3)n2n1)c1nnco1 (stereo unspecified)

>  <assigned_label>
YES

$$$$
>  <compound>
CC(C)C(Sc1ccc2nnc(-c3cccs3)n2n1)C(N)=O (stereo unspecified)

>  <assigned_label>
YES

$$$$
>  <compound>
COC(=O)[C@H](C)Sc1ccc2nnc(-c3cccs3)n2n1

>  <assigned_label>
YES

$$$$
>  <compound>
CC(C)(C)c1cccc(Sc2ccc3nnc(-c4cncs4)n3n2)c1

>  <assigned_label>
YES

$$$$
>  <compound>
FC(F)(F)c1cccc(Sc2ccc3nnc(-c4ccn[nH]4)n3n2)c1

>  <assigned_label>
YES

$$$$
>  <compound>
FC(F)(F)c1cccc(Sc2ccc3nnc(-c4cccc(N5CCNCC5)c4)n3n2)c1

>  <assigned_label>
YES

$$$$
>  <compound>
FC(F)(F)Oc1cccc(Sc2ccc3nnc(-c4cncs4)n3n2)c1

>  <assigned_label>
YES

$$$$

These entries and their values trace back to ChEMBL document CHEMBL2346543.
